System: Pseudomonas aeruginosa
protocol: Minimum inhibitory concentration against aerobic organism Pseudomonas aeruginosa strain 2835
Format: functional
endpoint-label: MIC

Illustrative cases are given below, each with its answer.
# compound, MIC
rows = [
    ("CC(=O)OCC1=C(C(=O)[O-])N2C(=O)[C@@H](Nc3cc[n+](COCc4ccc([N+](=O)[O-])cc4)cc3)[C@H]2SC1", "> 128 µg/mL"),
    ("CCO[n+]1ccc(N[C@@H]2C(=O)N3C(C(=O)[O-])=C(CSc4nnnn4C)CS[C@H]23)cc1", "> 128 µg/mL"),
    ("Cn1nnnc1SCC1=C(C(=O)[O-])N2C(=O)[C@@H](Nc3cc[n+](CC(=O)[O-])cc3)[C@H]2SC1.[Na+]", "> 128 µg/mL"),
]

Batch request: MIC for each of the following compounds.
1. O=C([O-])C1=C(Cl)CS[C@@H]2[C@H](Nc3cc[n+](Cc4ccccc4)cc3)C(=O)N12
2. O=C([O-])C1=C(CSc2cc[n+](Cc3ccccc3)cc2)CS[C@@H]2[C@H]([N-]c3cc[n+](Cc4ccccc4)cc3)C(=O)N12
3. Cn1nnnc1SCC1=C(C(=O)[O-])N2C(=O)[C@@H](Nc3cc[n+](C)cc3)[C@H]2SC1 (stereo in doubt; 15b)
4. Cn1nnnc1SCC1=C(C(=O)[O-])N2C(=O)[C@@H](Nc3cc[n+](COCC(Cl)(Cl)Cl)cc3C(=O)OC(C)(C)C)[C@H]2SC1
5. CC1(C)S[C@@H]2[C@H](NC=[N+]3CCCCCC3)C(=O)N2[C@H]1C(=O)[O-]
6. O=C(Cc1cccs1)N[C@@H]1C(=O)N2C(C(=O)[O-])=C(C[n+]3ccccc3)CS[C@H]12 [CEPHALORIDINE]
7. O=C([O-])C1=C(C[n+]2ccccc2)CS[C@@H]2[C@H]([N-]c3cc[n+](Cc4ccccc4)cc3)C(=O)N12
8. O=C([O-])C1=CCS[C@@H]2[C@H](Nc3cc[n+](Cc4ccccc4)cc3)C(=O)N12

1: > 128 µg/mL; 2: > 128 µg/mL; 3: > 128 µg/mL; 4: > 128 µg/mL; 5: > 128 µg/mL; 6: > 128 µg/mL; 7: 64 µg/mL; 8: 128 µg/mL

Batch request: MIC for each of the following compounds.
1. COC(=O)c1ccc(NC2C(=O)N3C(C(=O)[O-])=C(CSc4nnnn4C)CSC23)[n+](C)c1 (centres undefined)
2. Cn1nnnc1SCC1=C(C(=O)[O-])N2C(=O)[C@@H](Nc3cc[n+](COCC(F)(F)F)cc3)[C@H]2SC1

["> 128 µg/mL", "> 128 µg/mL"]

Batch request: MIC for each of the following compounds.
1. Cn1nnnc1SCC1=C(C(=O)[O-])N2C(=O)[C@@H](Nc3cc[n+](Cc4ccccc4)cc3)[C@H]2SC1
2. CN(C)CCn1nnnc1SCC1=C(C(=O)[O-])N2C(=O)[C@@H](Nc3cc[n+](Cc4ccccc4)cc3)[C@H]2SC1
3. O=C([O-])CSc1nnc(SCC2=C(C(=O)[O-])N3C(=O)[C@@H](Nc4cc[n+](Cc5ccccc5)cc4)[C@H]3SC2)s1.[Na+]
4. Cc1nnc(SCC2=C(C(=O)[O-])N3C(=O)[C@@H](Nc4cc[n+](COCC(Cl)(Cl)Cl)cc4C(=O)[O-])[C@H]3SC2)s1.[Na+]
5. CC(=O)OCC1=C(C(=O)[O-])N2C(=O)[C@@H](Nc3cc[n+](C)cc3)[C@H]2SC1
6. Cn1nnnc1SCC1=C(C(=O)[O-])N2C(=O)C(Nc3cccc[n+]3C)C2SC1 (centres undefined)
7. CCOC(=S)SCC1=C(C(=O)[O-])N2C(=O)[C@@H](Nc3cc[n+](Cc4ccccc4)cc3)[C@H]2SC1

> 128 µg/mL
> 128 µg/mL
128 µg/mL
> 128 µg/mL
> 128 µg/mL
> 128 µg/mL
> 128 µg/mL

Batch request: MIC for each of the following compounds.
1. CC1=C(C(=O)[O-])N2C(=O)[C@@H](Nc3cc[n+](Cc4ccccc4)cc3)[C@H]2SC1
2. CC[n+]1ccc(N[C@@H]2C(=O)N3C(C(=O)[O-])=C(CSc4nnnn4C)CS[C@H]23)cc1
3. Cn1nnnc1SCC1=C(C(=O)[O-])N2C(=O)[C@@H](Nc3cc[n+](COCC(Cl)(Cl)Cl)cc3)[C@H]2SC1
4. O=C([O-])C1=C(CO)CS[C@@H]2[C@H](Nc3cc[n+](Cc4ccccc4)cc3)C(=O)N12
5. Cc1nnc(SCC2=C(C(=O)[O-])N3C(=O)[C@@H](Nc4cc[n+](Cc5ccccc5)cc4)[C@H]3SC2)s1

["> 128 µg/mL", "> 128 µg/mL", "> 128 µg/mL", "> 128 µg/mL", "> 128 µg/mL"]

Batch request: MIC for each of the following compounds.
1. CCOC(=O)C[n+]1ccc(N[C@@H]2C(=O)N3C(C(=O)[O-])=C(CSc4nnnn4C)CS[C@H]23)cc1
2. COC(=O)c1c[n+](C)ccc1N[C@@H]1C(=O)N2C(C(=O)[O-])=C(CSc3nnnn3C)CS[C@H]12
3. COC[n+]1ccc(N[C@@H]2C(=O)N3C(C(=O)[O-])=C(CSc4nnnn4C)CS[C@H]23)cc1
4. Cn1nnnc1SCC1=C(C(=O)[O-])N2C(=O)[C@@H](Nc3cc[n+](COCc4ccccc4)cc3)[C@H]2SC1

1. > 128 µg/mL
2. > 128 µg/mL
3. > 128 µg/mL
4. > 128 µg/mL

* * *

Tested on: Enterococcus faecalis
protocol: Minimum inhibitory concentration against aerobic organism Streptococcus faecalis strain 2864
Format: functional
Could you please report measured MIC for the items listed next?

Illustrative cases are given below, each with its answer.
# compound, target-system, val
data = [
    ("Cn1nnnc1SCC1=C(C(=O)[O-])N2C(=O)[C@@H](Nc3cc[n+](Cc4ccc(F)cc4)cc3)[C@H]2SC1", "Enterococcus faecalis", "128 µg/mL"),
    ("Cn1nnnc1SCC1=C(C(=O)[O-])N2C(=O)[C@@H](Nc3cc[n+](COCC(Cl)(Cl)Cl)cc3C(=O)[O-])[C@H]2SC1.[Na+]", "Enterococcus faecalis", "> 128 µg/mL"),
    ("Cn1nnnc1SCC1=C(C(=O)[O-])N2C(=O)[C@@H](Nc3cc[n+](Cc4ccc(C#N)cc4)cc3)[C@H]2SC1", "Enterococcus faecalis", "> 128 µg/mL"),
    ("Cn1nnnc1SCC1=C(C(=O)[O-])N2C(=O)[C@@H](Nc3cc[n+](COCC(Cl)(Cl)Cl)cc3C(=O)OC(C)(C)C)[C@H]2SC1", "Enterococcus faecalis", "> 128 µg/mL"),
]

Batch request: MIC for each of the following compounds.
1. Cn1nnnc1SCC1=C(C(=O)[O-])N2C(=O)[C@@H](Nc3cc[n+](Cc4ccco4)cc3)[C@H]2SC1
2. O=C([O-])C1=CCS[C@@H]2[C@H](Nc3cc[n+](Cc4ccccc4)cc3)C(=O)N12
3. CC1(C)SC2C(Nc3cc[n+](COCC(Cl)(Cl)Cl)cc3)C(=O)N2[C@H]1C(=O)[O-] (stereo not given in full)
4. CC1(C)S[C@@H]2[C@H](NC=[N+]3CCCCCC3)C(=O)N2[C@H]1C(=O)[O-]
5. CCOC(=O)C[n+]1ccc(N[C@@H]2C(=O)N3C(C(=O)[O-])=C(CSc4nnnn4C)CS[C@H]23)cc1

1: 128 µg/mL; 2: 128 µg/mL; 3: 128 µg/mL; 4: > 100 µg/mL; 5: > 128 µg/mL

* * *

Could you please report measured MIC for the items listed next?
Test system: Enterococcus faecalis
protocol: Minimum inhibitory concentration against aerobic organism Streptococcus faecalis strain 2864
Assay type: functional

Illustrative cases are given below, each with its answer.
# compound, val
measured = [
    ("CC(=O)OCC1=C(C(=O)[O-])N2C(=O)[C@@H](Nc3cc[n+](COCC(Cl)(Cl)Cl)cc3)[C@H]2SC1", "128 µg/mL"),
    ("COc1ccc(C[n+]2ccc(N[C@@H]3C(=O)N4C(C(=O)[O-])=C(CSc5nnnn5C)CS[C@H]34)cc2)cc1OC", "> 64 µg/mL"),
    ("CC(=O)OCC1=C(C(=O)[O-])N2C(=O)[C@@H](Nc3cc[n+](C)cc3)[C@H]2SC1", "> 128 µg/mL"),
]

Batch request: MIC for each of the following compounds.
1. COC(=O)c1ccc(NC2C(=O)N3C(C(=O)[O-])=C(CSc4nnnn4C)CSC23)[n+](C)c1 (centres undefined)
2. Cn1nnnc1SCC1=C(C(=O)[O-])N2C(=O)[C@@H](Nc3cc[n+](C)cc3)[C@H]2SC1 (stereo in doubt; 15b)

> 128 µg/mL
> 128 µg/mL

Just for reference, ChEMBL document CHEMBL1122046 is where these values come from.
